- system: 3-hydroxy-3-methylglutaryl-coenzyme A reductase (Rattus norvegicus) (UniProt P51639)
- Sequence (whole entry): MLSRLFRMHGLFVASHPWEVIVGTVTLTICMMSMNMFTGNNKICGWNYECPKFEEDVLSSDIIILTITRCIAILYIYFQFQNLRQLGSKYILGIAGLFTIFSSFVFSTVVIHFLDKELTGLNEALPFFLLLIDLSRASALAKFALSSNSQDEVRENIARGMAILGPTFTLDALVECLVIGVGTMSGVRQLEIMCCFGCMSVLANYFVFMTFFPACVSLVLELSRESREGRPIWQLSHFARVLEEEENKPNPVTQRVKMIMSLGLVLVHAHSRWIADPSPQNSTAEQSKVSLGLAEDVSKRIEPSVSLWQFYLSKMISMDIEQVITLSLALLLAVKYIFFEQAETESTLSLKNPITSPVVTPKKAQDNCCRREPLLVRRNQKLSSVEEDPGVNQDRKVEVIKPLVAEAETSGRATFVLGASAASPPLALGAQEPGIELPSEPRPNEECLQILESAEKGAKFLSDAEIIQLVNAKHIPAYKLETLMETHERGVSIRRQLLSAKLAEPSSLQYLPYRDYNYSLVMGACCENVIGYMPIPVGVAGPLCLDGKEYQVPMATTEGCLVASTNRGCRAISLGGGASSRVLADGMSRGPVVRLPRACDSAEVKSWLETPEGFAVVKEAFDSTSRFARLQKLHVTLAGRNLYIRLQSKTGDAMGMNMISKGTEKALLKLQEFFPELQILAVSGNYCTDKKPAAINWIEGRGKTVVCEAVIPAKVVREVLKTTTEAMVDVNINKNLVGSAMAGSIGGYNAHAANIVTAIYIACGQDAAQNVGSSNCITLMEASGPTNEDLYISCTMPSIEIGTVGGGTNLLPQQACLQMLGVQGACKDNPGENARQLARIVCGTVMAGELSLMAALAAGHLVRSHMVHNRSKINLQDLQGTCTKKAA
- assay_procedure: In vitro rat HMG-CoA reductase inhibitory activity required to inhibit sterol synthesis in cell free system with pravastatin as reference compound
reported_endpoint: Relative potency
Form field (numeric): enter value without unit.

// solved cases for Relative potency follow
smiles_repr	Relative potency
Cc1cc2nc(C3CC3)c(/C=C/[C@@H](O)C[C@@H](O)CC(=O)O)c(-c3ccc(F)cc3)n2n1	24
Cc1sc2nc(C(C)C)c(/C=C/[C@@H](O)C[C@@H](O)CC(=O)O)c(-c3ccc(F)cc3)c2c1-c1ccccc1	1
CC(C)c1nc2onc(-c3ccccc3)c2c(-c2ccc(F)cc2)c1/C=C/[C@@H](O)C[C@@H](O)CC(=O)O	83
CC(C)(C)n1nc(C2CC2)c2c(-c3ccc(F)cc3)c(/C=C/[C@@H](O)C[C@@H](O)CC(=O)O)c(C3CC3)nc21	98
Cc1nn(C(C)(C)C)c2nc(C(C)C)c(/C=C/[C@@H](O)C[C@@H](O)CC(=O)O)c(-c3ccc(F)cc3)c12	100

Could you share which Relative potency value was measured for Cc1nn(-c2ccccc2)c2nc(C(C)C)c(/C=C/[C@@H](O)C[C@@H](O)CC(=O)O)c(-c3ccc(F)cc3)c12 ? 264

# iterate: CC(C)c1nc2sc3c(c2c(-c2ccc(F)cc2)c1/C=C/[C@@H](O)C[C@@H](O)CC(=O)O)CCC3 58

# iterate: Cc1nn(C)c2nc(C3CC3)c(/C=C/[C@@H](O)C[C@@H](O)CC(=O)O)c(-c3ccc(F)cc3)c12 228

Each recorded value in this set is attributed to ChEMBL document CHEMBL1134061.
